Where do these numbers come from? They come from PubChem BioAssay (NCI).

- Tested on: OVCAR-4 ovarian
- ASSAY_PROCEDURE: NCI tumour cell line growth inhibition, 48 h
# TGI listing for each entry below

MOLECULE: O=C(O)CNC(=O)C1NC(C(F)(F)F)(C(F)(F)F)OC1(C(F)(F)F)C(F)(F)F (stereo unspecified)
TGI: > 100 µM
//
MOLECULE: Cc1cc(=O)n2nc(CSc3n[nH]c(=S)s3)sc2n1
TGI: > 100 µM
//
MOLECULE: COc1ccc(C(=O)N(Cc2cccnc2)C(=S)N(Cc2cccnc2)C(=O)c2ccc(OC)cc2)cc1
TGI: > 100 µM
//
MOLECULE: Cc1ccc(-c2cc(=O)c3cc(C)c(C)c(C(=O)O)c3o2)cc1[N+](=O)[O-]
TGI: > 100 µM
//
MOLECULE: C=C(C)[C@@H]1CC[C@]2(CN)CC[C@]3(C)[C@H](CC[C@@H]4[C@@]5(C)CCC(N)[C@@](C)(CO)[C@@H]5CC[C@]43C)[C@@H]12 (stereo partly specified)
TGI: 3.26 µM
//
MOLECULE: COC(=O)C1=C(O)c2cc3c(cc2[C@H](c2cc(OC)c(OC)c(OC)c2)C1)OCO3
TGI: > 100 µM
//
MOLECULE: COc1ccc2c(c1)OC1c3ccccc3OCC21 (stereo unspecified)
TGI: > 100 µM
//
MOLECULE: CO/N=C(\C(=O)[N-][n+]1cnn(CC(=O)O)c1)c1csc(N)n1
TGI: > 10 µM
//
MOLECULE: COc1ccc(NS(=O)(=O)c2ccc(N=C3C=C(Nc4ccc(S(=O)(=O)Nc5ccc(OC)nn5)cc4)C(=O)c4ccccc43)cc2)nn1
TGI: 50.4 µM
//
MOLECULE: CC(C)(C)C1CCC(=O)C(C(O)CC2CC(=O)N(c3ccccc3)C(=O)C2)C1 (stereo unspecified)
TGI: > 100 µM
//
MOLECULE: C#CCOC(=O)[C@@H](C)c1ccc2cc(OC)ccc2c1
TGI: > 100 µM
//
MOLECULE: O=C1c2ccccc2-c2c1c1ccc([N+](=O)[O-])cc1c(=O)n2CCCn1ccnc1
TGI: 13.2 µM
//
MOLECULE: COC(=O)c1ccc(/C=C/S(=O)(=O)c2ccccc2)cc1
TGI: > 100 µM
//
MOLECULE: COC(=O)C1SC[C@H]2C(=O)N(c3ccccc3)C(=O)N12 (stereo partly specified)
TGI: > 100 µM
//
MOLECULE: CC1=CC2=C(C#N)C(=O)OC2(C)C(c2ccccc2)C1 (stereo unspecified)
TGI: > 100 µM
//
MOLECULE: Cc1nn(C(=O)c2ccncc2)c2c1C(c1ccc([N+](=O)[O-])cc1)SC(N)=N2 (stereo unspecified)
TGI: > 100 µM
//
MOLECULE: O=C1CSC(c2cccc(Oc3ccccc3)c2)N1c1cccc(Cl)c1Cl (stereo unspecified)
TGI: > 100 µM
//
MOLECULE: COC1C(OC(C)=O)CC(=O)OC(C)C/C=C/C=C\C(O)C(C)CC(CC=O)C1OC1OC(C)C(OC2CC(C)(O)C(OC(=O)CC(C)C)C(C)O2)C(N(C)C)C1O (stereo unspecified)
TGI: > 100 µM
//
MOLECULE: CCC(=O)Nc1ncnc2ncn(C(=O)CC)c12
TGI: > 100 µM
//
MOLECULE: Nc1nc(Cl)c(C=O)c(NCC2(CO)CCC2)n1
TGI: 32.9 µM
//
MOLECULE: O=C1NC(N2CCCCC2)=N/C1=C\c1ccccc1
TGI: > 100 µM
